- Assay summary: Tissue distribution in wild-type and Abcg2-/- male mice
- Condition label: male, FVB/N, mouse, in vivo, ip, 10 mg/kg, Concentration in testis, wild-type male mice, 10 mg/kg intraperitoneal

# Smiles string, Units of measure, concentration at 60 min
rows = [
    ("Cc1cc2nc3[nH]c(=O)[nH]c(=O)c3nc2cc1C", "ng/mL", 80),
]

----------
- Assay summary: Tissue distribution in wild-type and Abcg2-/- male mice
- Condition label: male, FVB/N, mouse, in vivo, ip, 10 mg/kg, Concentration in small intestine content, wild-type male mice, 10 mg/kg intraperitoneal

# Smiles string, concentration at 60 min, ng/mL
rows = [
    ("Cc1cc2nc3[nH]c(=O)[nH]c(=O)c3nc2cc1C", 850),
]

----------
- Assay summary: Tissue distribution in wild-type and Abcg2-/- male mice
- Condition label: male, FVB/N, mouse, in vivo, ip, 10 mg/kg, Concentration in liver, Abcg2-/- male mice, 10 mg/kg intraperitoneal
- Protocol: Animals were handled according to institutional and ARRIVE guidelines complying with European legislation (2010/63/EU). […] The chromatographic system used for sample analysis consisted of a Waters 2695 separation module and a Waters 2998 UV photodiode array detector. […] In both cases, the flow rate was set to 1.00 mL/min and UV absorbance was measured at 260.3 nm.

# Compound, concentration at 60 min (µg/mL)
measured = [
    ("Cc1cc2nc3[nH]c(=O)[nH]c(=O)c3nc2cc1C [lumichrome]", 0.34),
]

----------
- Assay summary: Plasma levels in wild-type and Abcg2-/- male mice after intraperitoneal administration
- Condition label: male, FVB/N, mouse, in vivo, ip, 10 mg/kg, Plasma concentration, wild-type male mice, 10 mg/kg intraperitoneal, 45 min

# Smiles string, concentration at 45 min
rows = [
    ("Cc1cc2nc3[nH]c(=O)[nH]c(=O)c3nc2cc1C", "390 ng/mL"),
]

----------
- Assay summary: in vivo
- Condition label: female, FVB/N, mouse, ip, 10 mg/kg, Milk concentration, wild-type lactating female mice, 10 mg/kg intraperitoneal
Measured attribute: concentration at 30 min (ng/mL)

# Smiles string, Reported
records = [
    ("Cc1cc2nc3[nH]c(=O)[nH]c(=O)c3nc2cc1C", 1750),
]

----------
- Assay summary: Plasma levels in wild-type and Abcg2-/- male mice after intraperitoneal administration
- Condition label: male, FVB/N, mouse, in vivo, ip, 10 mg/kg, Plasma concentration, wild-type male mice, 10 mg/kg intraperitoneal, 60 min

# Compound, concentration at 60 min / ng/mL
measured = [
    ("Cc1cc2nc3[nH]c(=O)[nH]c(=O)c3nc2cc1C [lumichrome]", 400),
]
